System: DeltatarO mutant
Assay: S. aureus survival, RN4220 and DeltatarO strains – OD600, teichoic acid synthesis inhibitors, primary screen (AID 463173)
Conditions: S. aureus RN4220 wild type/DeltatarO growth, OD600, 18 h, hits give low values, screened at 18.75 µg/mL (by protocol)
Hit rate of the full screen: of about 52,000 compounds, about 4,300 (8.3%) were called active. The sample holds actives, similar compounds and a random draw of the others, so the mix is not that of the screen.
measure: survival (%)
Express your answer in %, writing the number without its unit.

Suppose we examine the compound CCCC12CN3CC(CCC)(CN(C1)C3c1ccc(OCc3ccccc3)cc1)C2=O (stereo not given) ; what survival value has been reported?
112

Repeat for the following compound: CCCC12CN3CC(CCC)(CN(C1)C3c1ccc(OC(C)C)cc1)C2=O (stereo not given)
21

Also, COc1ccc(-c2noc(-c3ccc(N4CCCC4)c([N+](=O)[O-])c3)n2)cc1 please.
108

CCCC12CN3CC(C)(CN(C1)C3c1ccc(CC)cc1)C2=O (stereo not given) , same question.
87

Note, next up: COc1ccc(-c2noc(-c3ccc(N4CCN(C)CC4)c([N+](=O)[O-])c3)n2)cc1OC
50

###

Tested on: DeltatarO mutant
Assay: S. aureus survival, RN4220 and DeltatarO strains – OD600, teichoic acid synthesis inhibitors, primary screen (AID 463173)
Conditions: S. aureus RN4220 wild type/DeltatarO growth, OD600, 18 h, hits give low values, screened at 18.75 µg/mL (by protocol)
Hit rate of the full screen: of about 52,000 compounds, about 4,300 (8.3%) were called active. The entries come from a sample that favours actives as a whole.
Mark Satisfied for survival under 70%, Not satisfied if at or over.

Known results for molecules:
O=C(O)CCC(=O)Nc1ccc2c(c1)oc1ccccc12: Not satisfied
COc1ccccc1CCNC(=O)Cc1c(C)c2cc3c(C(C)(C)C)coc3c(C)c2oc1=O: Not satisfied
COc1ccccc1N1CCN(S(=O)(=O)c2c(C)sc3ncn(CC(=O)N(C)c4ccc(Cl)cc4)c(=O)c23)CC1: Satisfied

Strictly below 70% in survival? CC1=C(C(=O)Nc2ccc(C)cc2C)C(c2ccccc2C)n2ncnc2N1 (stereo not given)
Not satisfied

###

System: DeltatarO mutant
Test: S. aureus survival, RN4220 and DeltatarO strains – OD600, teichoic acid synthesis inhibitors, primary screen (AID 463173)
Conditions: S. aureus RN4220 wild type/DeltatarO growth, OD600, 18 h, hits give low values, screened at 18.75 µg/mL (by protocol)
Out of some 52,000 compounds screened, about 4,300 (8.3%) were called active. Only a selection was taken, and actives are over-represented in it overall.
measure: survival (%)
Number in %, nothing else.

O=C(CCn1c(=O)c2cccn2c2cccnc21)Nc1ccccc1Br: 74

Given COc1ccc(CCNC(=O)CCc2c(C)nc3c4cccnc4nn3c2C)cc1OC , state its recorded survival.
87

Proceed to COC(=O)c1ccc(NC(=O)CCS(=O)(=O)c2ccc(Br)s2)cc1
60

Likewise for COc1ccc(-n2c(-c3ccc(C)cc3)cc3c2CC(C)(C)CC3=O)c(OC)c1 ?
101

What about this compound? CCC(C(=O)NC1CCCCC1)n1c(SCc2ccc(F)cc2)nc2ccncc21 (stereo not given)
73

Similarly, Cc1cccc(-n2c3c(cc(-c4nc(-c5ccc(Cl)cc5)cs4)c2=O)C(=O)CC(C)(C)C3)c1 ?
62

Another compound to look at: CC(Sc1nc(-c2ccccc2)cc(C(F)(F)F)n1)C(=O)N1CCCC1 (stereo not given)
101

Ok, now Cc1cc(NC(=O)c2ccc(NC(=O)CCS(=O)(=O)c3cccs3)cc2)ccc1Br
35

And then COc1ccc(C)cc1-n1c(-c2ccc(C)cc2)cc2c1CC(C)(C)CC2=O , what is it?
114

Consider next the compound CC1CCN(C(=O)CSc2n[nH]c(-c3ccc(F)cc3)n2)CC1 in the same way.
92
